I'd be grateful if you could share measured IC50 for these entries.
molecular target: human sodium channels Nav 1.8 (Homo sapiens, UniProt Q9Y5Y9); test: Automated whole-cell voltage-clamp (ScreenPatch 384P) on CHO cells stably expressing Nav 1.8; settings: inactivation step -40 mV 8 s, test pulse 10 mV, room temperature, exposure at least five minutes, read-out: Nav1.8 IC50
Sequence (Q9Y5Y9 whole entry): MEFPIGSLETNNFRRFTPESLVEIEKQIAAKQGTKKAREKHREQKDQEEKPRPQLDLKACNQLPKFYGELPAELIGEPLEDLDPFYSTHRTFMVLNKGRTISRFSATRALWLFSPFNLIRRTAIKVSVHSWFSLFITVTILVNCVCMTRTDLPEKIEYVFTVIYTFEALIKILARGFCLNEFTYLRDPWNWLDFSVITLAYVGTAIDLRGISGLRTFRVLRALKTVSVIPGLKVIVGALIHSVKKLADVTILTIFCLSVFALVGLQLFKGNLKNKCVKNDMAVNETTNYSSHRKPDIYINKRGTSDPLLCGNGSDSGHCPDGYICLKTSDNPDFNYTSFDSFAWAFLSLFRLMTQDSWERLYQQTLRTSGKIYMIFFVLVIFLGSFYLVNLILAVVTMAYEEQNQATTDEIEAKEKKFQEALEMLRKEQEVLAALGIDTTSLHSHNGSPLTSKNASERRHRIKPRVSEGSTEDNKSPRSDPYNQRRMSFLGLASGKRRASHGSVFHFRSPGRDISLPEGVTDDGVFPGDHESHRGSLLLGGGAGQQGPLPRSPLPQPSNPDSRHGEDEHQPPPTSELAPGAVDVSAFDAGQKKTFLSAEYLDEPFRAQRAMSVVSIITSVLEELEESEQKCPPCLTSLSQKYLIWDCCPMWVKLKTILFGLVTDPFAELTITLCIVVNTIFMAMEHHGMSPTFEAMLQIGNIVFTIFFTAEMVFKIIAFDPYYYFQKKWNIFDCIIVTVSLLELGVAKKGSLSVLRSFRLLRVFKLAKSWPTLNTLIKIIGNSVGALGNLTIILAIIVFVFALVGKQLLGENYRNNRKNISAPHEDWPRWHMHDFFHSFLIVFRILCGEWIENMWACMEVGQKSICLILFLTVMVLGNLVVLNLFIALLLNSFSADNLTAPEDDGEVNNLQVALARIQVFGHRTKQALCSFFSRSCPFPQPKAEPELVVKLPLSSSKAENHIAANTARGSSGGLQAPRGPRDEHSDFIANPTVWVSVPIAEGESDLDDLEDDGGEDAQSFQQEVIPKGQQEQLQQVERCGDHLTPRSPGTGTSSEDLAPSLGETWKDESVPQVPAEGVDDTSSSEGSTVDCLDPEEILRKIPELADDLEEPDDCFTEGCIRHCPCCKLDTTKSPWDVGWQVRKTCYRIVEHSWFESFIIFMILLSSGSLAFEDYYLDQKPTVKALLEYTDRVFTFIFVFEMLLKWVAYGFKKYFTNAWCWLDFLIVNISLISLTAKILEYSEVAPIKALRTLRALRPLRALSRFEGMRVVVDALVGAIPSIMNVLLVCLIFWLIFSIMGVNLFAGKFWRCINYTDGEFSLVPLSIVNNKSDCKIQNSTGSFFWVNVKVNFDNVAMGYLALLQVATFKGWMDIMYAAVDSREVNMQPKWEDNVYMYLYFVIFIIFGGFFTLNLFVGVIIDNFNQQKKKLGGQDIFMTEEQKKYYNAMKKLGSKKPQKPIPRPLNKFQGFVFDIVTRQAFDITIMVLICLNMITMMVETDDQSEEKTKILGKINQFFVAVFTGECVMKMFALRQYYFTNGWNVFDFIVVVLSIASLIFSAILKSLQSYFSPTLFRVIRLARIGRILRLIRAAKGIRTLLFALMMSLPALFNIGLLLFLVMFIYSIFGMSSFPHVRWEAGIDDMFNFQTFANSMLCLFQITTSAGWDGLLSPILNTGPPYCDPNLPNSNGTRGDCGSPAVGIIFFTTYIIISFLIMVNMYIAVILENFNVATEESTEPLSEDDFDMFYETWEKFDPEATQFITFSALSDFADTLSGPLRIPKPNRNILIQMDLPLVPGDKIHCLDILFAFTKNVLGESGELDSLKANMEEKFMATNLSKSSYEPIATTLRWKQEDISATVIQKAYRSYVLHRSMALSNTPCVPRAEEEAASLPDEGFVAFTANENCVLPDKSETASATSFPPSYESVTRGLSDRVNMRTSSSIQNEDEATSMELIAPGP

For the 2 compounds below, give their IC50 values.
1. COc1ccc(-c2cnc(O)c(C(=O)N/N=C/c3cc(C)cc(C)c3)n2)cc1 [Compound 15]
2. COc1ccc(-c2cncc(C(=O)N/N=C/c3cccc(O)c3)n2)cc1 [Compound 23]

// result
1. > 1000 nM
2. > 1000 nM

For each of the compounds below, state IC50.
1. CCOc1ccc(-c2cncc(C(=O)N/N=C/c3cc(O)ccc3F)n2)cc1 [Compound 27]
2. CCOc1ccc(-c2cncc(C(=O)N/N=C/c3cc(OC)cnc3F)n2)c(O)c1 [Compound 9]

// result
1. 500 to 1000 nM
2. < 500 nM

* * *

Can you tell me pIC50 for the items I'm about to list?
molecular target: UniProt:Q9Y5Y9; assay: Automated whole-cell voltage-clamp (ScreenPatch 384P) on CHO cells stably expressing Nav 1.8; settings: inactivation step -40 mV 8 s, test pulse 10 mV, room temperature, exposure at least five minutes, read-out: Nav1.8 IC50
pIC50: −log10 of the molar value.

// query Look up pIC50 for this compound: O=C(N/N=C/c1cncc(O)c1)c1cncc(-c2ccc(O)cc2)n1 [Compound 4]
// result < 6.00

// query Quick one: pIC50 of CCOc1ccc(-c2cncc(C(=O)N/N=C/c3cc(C)cc(O)c3)n2)cc1 [Compound 26] ?
// result > 6.30

// query For COc1ccc(-c2cncc(C(=O)N/N=C/c3cc(O)cc(OC)c3)n2)cc1 [Compound 21] , what is its reported pIC50?
// result < 6.00

// query # get_value(readout='pIC50', item= COc1ccc(-c2cncc(C(=O)N/N=C/c3cc(C)cc(C)c3)n2)c(O)c1 [Compound 7] )
// result > 6.30

// query Reported pIC50, compound COc1ccc(-c2cncc(C(=O)N/N=C/c3ccccc3O)n2)cc1 [Compound 24] : ____
// result < 6.00

I would be grateful if you could provide pIC50 for each of the following entries.
1. CCOc1ccc(-c2nc(C(=O)N/N=C/c3cccc(OC)c3)cnc2O)c(F)c1 [Compound 18]
2. CCOc1ccc(-c2cncc(C(=O)N/N=C/c3cc(OC)ccc3F)n2)c(O)c1 [Compound 8]
3. COc1cc(/C=N/NC(=O)c2cncc(-c3ccc(O)cc3)n2)cc(OC)c1 [Compound 1]
4. COc1cc(/C=N/NC(=O)c2cncc(-c3ccc(OC)c(O)c3)n2)cc(OC)c1 [Compound 6]

// result
["< 6.00", "6.00 to 6.30", "< 6.00", "< 6.00"]

Cited source: patent US20260274804A1
